This collection of values is drawn from the supplement of paper PMC10646978.

Tested on: RAW-Dual (murine macrophage reporter line)
ASSAY_METHOD_TEXT: IRF reporter (Lucia luciferase) activity fold change vs agonist alone; higher = enhanced IRF activity
EXPERIMENTAL_SETUP: modulator concentration 10 µM; agonist: 3'3'-cGAMP 10 ug/mL
Please use Yes whenever IRF reporter is not below 0.8, and No whenever it is.

COMPOUND: CCC1OC(=O)C(C)C(OC2CC(C)(OC)C(O)C(C)O2)C(C)C(OC2OC(C)CC(N(C)C)C2O)C(C)(O)CC(C)CN(C)C(C)C(O)C1(C)O (configuration not stated)
ASSIGNED_CATEGORY: No
--
COMPOUND: O=C(/C=C/C=C/c1ccc2c(c1)OCO2)N1CCCCC1
ASSIGNED_CATEGORY: Yes
--
COMPOUND: CCC(C)C(=O)OC1CCC=C2C=CC(C)C(CCC3CC(O)CC(=O)O3)C21 (configuration not stated)
ASSIGNED_CATEGORY: Yes

I'd appreciate it if you could say whether "CCCC(C(=O)OCCN(CC)CC)(c1ccccc1)c1ccccc1.Cl" has IRF reporter at least equal to 0.8. Yes

Try "O=C(NC(=S)c1c(-c2ccccc2)cc2ccccn12)c1ccccc1" next. No

Try "O=C(Nc1cccc(Cl)c1Cl)c1cc2nc(-c3ccco3)cc(C(F)(F)F)n2n1" next. Yes

Try "CCSc1nc(-c2cccs2)cc(C(F)(F)F)c1C#N" next. Yes

###

Below, each entry is listed with its recorded IRF reporter.
Test system: RAW-Dual (murine macrophage reporter line)
ASSAY_METHOD_TEXT: IRF reporter (Lucia luciferase) activity fold change vs agonist alone; higher = enhanced IRF activity
EXPERIMENTAL_SETUP: modulator concentration 10 µM; agonist: 3'3'-cGAMP 10 ug/mL
Give a plain numeric answer without units written out.

Consider the compound "CN(C)c1nc(CNS(C)(=O)=O)nc(N2CCCCC2)n1" and give its measured IRF reporter. 0.991

Try "COc1c(C)c2c(c(O)c1C/C=C(\C)CCC(=O)O)C(=O)OC2" next. 0.453

###

System: RAW-Dual (murine macrophage reporter line)
ASSAY_METHOD_TEXT: viability score (confluency relative to resting cells, overnight) (fraction); higher = more viable, active = viable (0.7 or more)
EXPERIMENTAL_SETUP: modulator concentration 10 µM
Pick one: active, inactive

Please review the entries below; each comes with its answer.
COMPOUND: CCN(CC)c1ccc(-c2noc(CN3CCSCC3)n2)cn1
ASSIGNED_CATEGORY: active

COMPOUND: O=C(COc1ccccc1)N1CCCC1Cn1nccn1 (centres undefined)
ASSIGNED_CATEGORY: active

COMPOUND: COc1ccc(Br)c(C(=O)N2CCCC2CS(=O)(=O)c2ccccc2)c1 (centres undefined)
ASSIGNED_CATEGORY: active

Give the logged outcome of this assay for the following compound: "CN(C)CCN(Cc1ccccc1)c1ccccn1.Cl" active

Try "O=C(CCCCCCNC(=O)c1cnc(N(c2ccccc2)c2ccccc2)nc1)NO" next. active

Try "CNCCC[C@]12CC[C@H](c3ccccc31)c1ccccc12" next. active

###

Test system: RAW-Dual (murine macrophage reporter line)
ASSAY_METHOD_TEXT: NF-kB reporter (SEAP) activity fold change vs agonist alone; higher = enhanced NF-kB activity
EXPERIMENTAL_SETUP: modulator concentration 10 µM; agonist: CpG ODN 1826 0.5 ug/mL
PROPERTY: NF-kB reporter
Give a plain numeric answer without units written out.

Study these solved cases before continuing.
COMPOUND: CCN(CC)C(=O)Nc1ccc(OCC(O)CNC(C)(C)C)c(C(C)=O)c1 (stereo unspecified) [Prestw-1132]
NF-kB reporter: 1.41
--
COMPOUND: Cc1cn[nH]c1
NF-kB reporter: 0.122
--
COMPOUND: C[C@H](Cc1cc2c(c(C(N)=O)c1)N(CCCO)CC2)NCCOc1ccccc1OCC(F)(F)F
NF-kB reporter: 1.2

Consider the compound "Cc1ccc(OCC(=O)NN=Cc2cc(Br)cc(Br)c2O)c([N+](=O)[O-])c1" and give its measured NF-kB reporter. 0.928

Try "CC(C)CCn1c(COc2ccccc2)nc2ccccc21" next. 0.892

Try "O=[N+]([O-])c1ccc2nc(S)sc2c1" next. 0.847

Try "Nc1nnc(C(=O)O)[nH]1" next. 1.04

Try CC(C(=O)N1CCN(S(=O)(=O)C2CC2)CC1)n1nc2c(cc1=O)CCC2 (stereo unspecified) next. 0.928
